// data source = ChEMBL document CHEMBL4406914

So I've got a bunch of compounds here, and I need their CLH values.
ASSAY EXPLANATION: Hepatic intrinsic clearance in human Hepatocytes assessed per at 1 uM measured upto 90 mins by LC-MS/MS analysis
Type: ADME, cell-based, Hepatocyte
SETTINGS: 1.5 h

Here are 5 compounds together with their reported answers.
- SMILES NOTATION: "CC(C)n1nc(-c2ccc3oc(N)nc3c2)c2c(=O)[nH]c(N)nc21"
  CLH: "< 5 µL/min"
- SMILES NOTATION: "CC(C)n1nc(-c2ccc3oc(N)nc3c2)c2c(Br)nc(N)nc21"
  CLH: "55 µL/min"
- SMILES NOTATION: "CC(C)n1nc(-c2ccc3oc(N)nc3c2)c2c(=O)[nH]c(N(C)C)nc21"
  CLH: "< 5 µL/min"
- SMILES NOTATION: "Cc1nc(N)nc2c1c(-c1ccc3oc(N)nc3c1)nn2C(C)C"
  CLH: "< 5 µL/min"
- SMILES NOTATION: "CC(C)n1nc(-c2ccc3oc(N)nc3c2)c2c(N)ncnc21"
  CLH: "< 5 µL/min"

Need CLH for each of these compounds.
1. CNc1nc2c(c(-c3ccc4oc(N)nc4c3)nn2C(C)C)c(=O)[nH]1
2. Cc1nc2c(c(-c3ccc4oc(N)nc4c3)nn2C(C)C)c(=O)[nH]1

Completion:
1: < 5 µL/min; 2: < 5 µL/min

Need CLH for each of these compounds.
1. CC(C)n1nc(-c2ccc3oc(N)nc3c2)c2c(F)nc(N)nc21
2. CC(C)n1nc(-c2ccc3oc(N)nc3c2)c2c(N)nc(N)nc21
3. CC(C)n1nc(-c2ccc3oc(N)nc3c2)c2c(Cl)nc(N)nc21
4. CCc1nc(N)nc2c1c(-c1ccc3oc(N)nc3c1)nn2C(C)C

Completion:
1. 57 µL/min
2. < 5 µL/min
3. 11 µL/min
4. < 5 µL/min

Need CLH for each of these compounds.
1. CC(C)n1nc(-c2ccc3oc(N)nc3c2)c2c(=O)[nH]cnc21
2. CC(C)n1nc(-c2ccc3oc(N)nc3c2)c2c(C(F)(F)F)nc(N)nc21
3. CC(C)n1nc(-c2ccc3oc(N)nc3c2)c2c(CO)nc(N)nc21
4. CC(C)n1nc(-c2ccc3oc(N)nc3c2)c2cnc(N)nc21
5. CC(C)n1nc(-c2ccc3oc(N)nc3c2)c2c(C#N)nc(N)nc21

Completion:
["< 5 µL/min", "< 5 µL/min", "< 5 µL/min", "150 µL/min", "< 5 µL/min"]

###

SUBJECT OF TEST: Phosphatidylinositol 4,5-bisphosphate 3-kinase catalytic subunit alpha isoform (Homo sapiens)
Sequence (P42336 whole entry, canonical isoform): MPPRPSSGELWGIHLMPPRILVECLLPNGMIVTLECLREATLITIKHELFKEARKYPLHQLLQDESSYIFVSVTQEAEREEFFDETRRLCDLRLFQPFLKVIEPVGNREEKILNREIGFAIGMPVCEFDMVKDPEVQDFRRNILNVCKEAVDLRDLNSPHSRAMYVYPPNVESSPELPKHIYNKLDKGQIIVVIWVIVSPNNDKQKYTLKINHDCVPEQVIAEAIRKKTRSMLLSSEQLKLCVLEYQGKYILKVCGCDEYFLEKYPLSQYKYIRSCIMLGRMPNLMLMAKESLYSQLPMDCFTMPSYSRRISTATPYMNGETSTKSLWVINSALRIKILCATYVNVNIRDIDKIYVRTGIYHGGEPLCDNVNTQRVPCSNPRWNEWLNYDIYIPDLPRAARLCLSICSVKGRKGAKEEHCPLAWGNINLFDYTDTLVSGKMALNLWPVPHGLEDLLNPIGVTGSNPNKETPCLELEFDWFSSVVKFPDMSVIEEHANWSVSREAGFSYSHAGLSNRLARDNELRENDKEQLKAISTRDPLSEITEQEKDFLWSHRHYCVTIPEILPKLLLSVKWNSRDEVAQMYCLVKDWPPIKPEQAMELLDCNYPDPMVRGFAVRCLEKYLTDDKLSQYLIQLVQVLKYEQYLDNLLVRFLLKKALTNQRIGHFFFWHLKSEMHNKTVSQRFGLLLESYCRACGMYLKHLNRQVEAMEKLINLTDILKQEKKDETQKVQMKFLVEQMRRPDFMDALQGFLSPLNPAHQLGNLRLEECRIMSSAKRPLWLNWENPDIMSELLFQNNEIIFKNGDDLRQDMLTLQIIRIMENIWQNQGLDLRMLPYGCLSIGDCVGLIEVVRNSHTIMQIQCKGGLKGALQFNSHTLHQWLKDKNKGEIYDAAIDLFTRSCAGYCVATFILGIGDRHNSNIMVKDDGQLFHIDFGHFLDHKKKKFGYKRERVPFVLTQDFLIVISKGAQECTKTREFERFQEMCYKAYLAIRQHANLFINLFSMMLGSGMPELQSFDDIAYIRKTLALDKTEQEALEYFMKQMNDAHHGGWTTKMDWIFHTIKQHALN
So I've got a bunch of compounds here, and I need their Ki values.
Answers are plain numbers, in nM.

Need Ki for each of these compounds.
1. CC(C)n1nc(-c2ccc3oc(N)nc3c2)c2c(N)nc(N)nc21
2. CC(C)n1nc(-c2ccc3oc(N)nc3c2)c2c(F)nc(N)nc21

Completion:
[150, 2600]

Need Ki for each of these compounds.
1. CCc1nc(N)nc2c1c(-c1ccc3oc(N)nc3c1)nn2C(C)C
2. COc1nc(N)nc2c1c(-c1ccc3oc(N)nc3c1)nn2C(C)C
3. CCCCn1nc(-c2ccc3oc(N)nc3c2)c2c(C)nc(N)nc21
4. CC(C)n1nc(-c2ccc3oc(N)nc3c2)c2cnc(N)nc21

Completion:
85
250
2200
780

Need Ki for each of these compounds.
1. Cc1nc(N)nc2c1c(-c1ccc3oc(N)nc3c1)nn2C(C)C
2. CC(C)n1nc(-c2ccc3oc(N)nc3c2)c2c(=O)[nH]c(N)nc21

Completion:
990
3200
